Exercise: for every item that follows, state its recorded Enzyme Activity Endpoint Assay: IgG.
# target_or_test_system: pooled human IgG (human IgG1, 2, 3 and 4)
Lab book: enter the figure in ng/µL, no units written.

In one line, give reported Enzyme Activity Endpoint Assay: IgG of the entry PRT-423 (protein) MTITSVWTKGVTPPTPEDFRYNNEDVLHAPYVANQGWYDITKTFDGKDNLLCGAATAGNMLHWWFDQNKEEIERYLKKHPEKQKIIFNNQELFDVKAAIDTKDSQTNSKLFNYFRDKAFPNLSARQLGVMPDLVLDMFINGYYLNLGKTQSTDVNRPYQDKDKRGGIFDAVFTRGDQTTLLTARHDLKNKGLNEISDLIKQELTEGKALALSHTYANVRINHVINLWGADFDAEGNLIAIYVTDSDANASIGMKKYFVGRNANGKVAISAKKIEGDNIGAQVLGLFTLSTGQDIWQKLS . 1660

In one line, give reported Enzyme Activity Endpoint Assay: IgG of the entry PRT-602 (protein) MANQEIRYSEVTPYHITSVWTKGVTPPANFTQGEDVFHAPYVANQGWYDITKTFNGKDDLLCGAATAGNMLHWWFDQNKDQIERYLEEHPEKQKINFNGEQMFDVKEAIDTKDSQTDSKLFEYFKEKAFPYLSTKHLGVFPDHVIDMFINGYRLSLTNHGPTPVKEGSKDPRGGIFDAVFTRGDQSKLLTSRHDFKEKTLKEISDLIKQELTEGKALGLSHTYANVRINHVINLWGADFDSEGNLKAIYVTDSDSNASIGMKKYYVGVNSAGKVAISAKEIEEDNIGAQVLGLFTLSTGQDIWNQTNLEHHHHHH . 0

In one line, give reported Enzyme Activity Endpoint Assay: IgG of the entry PRT-390 (protein) MVTSVWTKGVTPPTNFTYGEDVLHAPYVANQGWYDITKTFNGKDDLLCGAATAGNMLHWWFDQNKEQIENYLKKHPEKQKINFNGEQLFDVKEAIDTKDSQLDSKLFEYFKEKAFPYLSTKHLGVFPDHVIDMFINGYRLSLTNHGPTPVKRGSKDPRGGIFDAVFTRGDQSKLLTNRHDFKEKTLKEISDLIKQELTEGKALGISHTYANVRINHVINLWGADFDAEGNLEAIYVTDSDSNASIGMKKYFVGVNSNGKVAISAKEIEEDNIGAQVLGLFTLSTGQDIWNQTN . 0

In one line, give reported Enzyme Activity Endpoint Assay: IgG of the entry PRT-453 (protein) MVTSVWTKGVTPPANFTQGEDVFHAPYKANQGWYDITKTFNGKDDLLCGAATAGNMLHWWFDQNKDQIEAYLKEHPEKQKINFNGEQMFDVKEAIDTKDDQTNSKLFEYFKEKAFPYLSTKHLGVFPDHVLDMFINGYRLSLTNHGPTPVKEGSKDPRGGIFDAVFTRGDQSKLLTSRHDLKNKTLKEISDLIKQELTEGKALALSHTYANVRINHVINLWGADFDSNGNLEAIYVTDSDSNASIGMKKYFVGVNSAGKVAISAKEIEDDNIGAQVLGLFTLSTGQDIWNQTNLEHHHHHH . 17
